As a worked illustration, we turn to pIC50 data collected for JAK2 (Homo sapiens (Human), UniProt O60674).
pIC50: −log10 of the molar value.
Parameter: pIC50

(P) CC(=O)N1CCN(Cc2ccc(-c3cccc4nc(NC(=O)C5CC5)nn34)cc2)CC1
(Q) O=C(Nc1nc2cccc(-c3ccc(C(=O)N4CCS(=O)(=O)CC4)cc3)n2n1)C1CC1
q: I need your help: which of the pair P , Q has higher pIC50? Your answer should be the label of the entry you select.
a: Q
(Q: 7.18, P: 6.07)

###

# Test Summary: Steady state PK in rat CIA model
# Format: in vivo
# Measurement Conditions: plasma, PO 1 mg/kg/day
Parameter: Cmax (ng/mL)
Supply the numeric figure in ng/mL, leaving out any unit text.

q: # Cmax lookup, item O=C(Nc1nc2cccc(-c3ccc(CN4CCS(=O)(=O)CC4)cc3)n2n1)C1CC1
a: 102
